Measured Suppression of HepG2 growth ED50 values are reported for all entries that follow.
# System: HepG2 cells
# PROTOCOL_SUMMARY: HepG2 cell proliferation (cell counting)
# Type: cell-based
Non-standard residues stand in square brackets, D forms with d. Residues, ends and D or L forms follow the SMILES beside them. pGlu = O=C1CC[C@@H](C(=O)O)N1
QUANTITY_MEASURED: Suppression of HepG2 growth ED50 (nM)

compound="CC(C)C[C@H](NC(=O)[C@H](Cc1c[nH]c2ccccc12)NC(=O)CNC(=O)[C@H](Cc1ccc(O)cc1)NC(=O)[C@H](CO)NC(=O)[C@H](Cc1c[nH]c2ccccc12)NC(=O)[C@H](Cc1c[nH]cn1)NC(=O)[C@@H]1CCC(=O)N1)C(=O)N1CCC[C@H]1C(=O)NCC(N)=O [sGnRH] ([pGlu]HWSYGWLPG-NH2)" quantity_measured="Suppression of HepG2 growth ED50" measured_value=7.55
compound="CC(C)C[C@H](NC(=O)[C@H](CO)NC(=O)[C@H](Cc1ccc(O)cc1)NC(=O)[C@H](Cc1c[nH]cn1)NC(=O)[C@@H]1CCC(=O)N1)C(=O)N[C@@H](CCC(=O)O)C(=O)N[C@@H](Cc1c[nH]c2ccccc12)C(=O)N[C@@H](CCCCN)C(=O)N1CCC[C@H]1C(=O)NCC(N)=O [lGnRH] ([pGlu]HYSLEWKPG-NH2)" quantity_measured="Suppression of HepG2 growth ED50" measured_value=1.5
compound="CC(C)C[C@H](NC(=O)CNC(=O)[C@H](Cc1c[nH]cn1)NC(=O)[C@H](CO)NC(=O)[C@H](Cc1c[nH]c2ccccc12)NC(=O)[C@H](Cc1c[nH]cn1)NC(=O)[C@@H]1CCC(=O)N1)C(=O)N[C@@H](CC(N)=O)C(=O)N1CCC[C@H]1C(=O)NCC(N)=O [cfGnRH] ([pGlu]HWSHGLNPG-NH2)" quantity_measured="Suppression of HepG2 growth ED50" measured_value=2.29
